Overview of recorded apparent KD of MS2 coat protein for various sequences
# Test system: MS2 coat protein
# measurementNotes: apparent KD of MS2 coat protein; designed switch direction (-1 OFF switch, 1 ON switch): -1; higher = weaker reporter binding
# measurementParameters: input ligand: microRNA oligo, concentration not stated
Give the value in nM but do not write nM after it.

Worked examples follow.
>  <sequenceInput>
CAGGAUAGAGGAUAUACAUAGAUACAGAUUCGUGUGAUCCUACAUGAGGAUCACCCAUGUAGAAGGCUAUCCUG [Fiskers Ex 2 - 23] (Eterna round: R96, puzzle: Exclusion 2)

>  <apparent KD of MS2 coat protein [nM]>
392

$$$$
>  <sequenceInput>
UUCGUGCAGCUUUGCUGUACGAGUACAUGAGGAUCACCCAUGUAGGAUAUGGUACGCUUUGCGUGCUAGAAGGAUAUGUGUAGG [JL EXNG3 1.37] (Eterna round: R96, puzzle: Exclusion NG 3)

>  <apparent KD of MS2 coat protein [nM]>
27.5

$$$$

Incoming: Name the recorded apparent KD of MS2 coat protein for CUGCUCCGUGUAGGAUAUCCCGGCAACCAACCGGGAGAAGGACAUGAGGAUCACCCAUGUAUGUUAUUAUCACGUGAAGCGUCC [Design 28] (Eterna round: R96, puzzle: Exclusion NG 1) .
Outgoing: 12.5

Incoming: Given the sequence ACAUGAGGAUCACCCAUGUACAGGGUUUAGCCUCAUUGUUUGAAGGAUAUACUCAGUUAGUUGUUGUAGAAGGUCACCUUUUAU [JR_ExcNG3_Sub003] (Eterna round: R96, puzzle: Exclusion NG 3) , what is its reported apparent KD of MS2 coat protein?
Outgoing: 1730

Incoming: Which apparent KD of MS2 coat protein is reported for this sequence? UUUUUUGGGCAAGGAUAUCCUGUGCGGUUCCGGCUCGUGUCUGUCACAUGAGGAUCACCCAUGUGGGAGAAGGUGCCUGCGGUU [Design 84] (Eterna round: R96, puzzle: Exclusion NG 2)
Outgoing: 10.8

----------
# Test system: MS2 coat protein
# measurementNotes: apparent KD of MS2 coat protein; higher = weaker reporter binding
# measurementParameters: Eterna round: R107; input ligand: none
# binarize apparent KD of MS2 coat protein: threshold 40 nM inclusive, high side condition met, low side condition not met

Some solved entries appear below for comparison.
>  <sequenceInput>
GCUGCCAUACGAAGGAGCGCUGGUGUAAUGAGGCGAACAUGAGGAUCACCCAUGUGGCAUAAGCAGGUAGGUCGCGUAUGGCAGC [EAB #16]

>  <discreteLabel>
condition not met

$$$$
>  <sequenceInput>
ACACGGAAUGAUGGAUCACCUCGUGAAUCACGAGGACCGGUACGGCCGCCACUCGAAAACCGUGACCUGUACGAAAAGUGCAGGA

>  <discreteLabel>
condition met

$$$$

Incoming: Is reported apparent KD of MS2 coat protein greater than or equal to 40 nM here: GGUUGGUGUAGAGAUAUAUUGAUUACUGAAGGAGCGGGAAGAAACCCAGGUAGGUCGCAGAGAUCCACAUGAGGAUCACCCAUGU [!0.L]
Outgoing: condition not met

----------
# System: K4 kissing-loop RNA reporter
# measurementNotes: apparent KD of K4 kissing-loop reporter; higher = weaker reporter binding
# measurementParameters: Eterna round: R107; input ligand: none
readoutName: apparent KD of K4 kissing-loop reporter
Output should be the measured figure followed by the unit it is expressed in.

Some sequences with recorded apparent KD of K4 kissing-loop reporter:
>  <sequenceInput>
AUAAUAUUGCGAGGAUAUCCUUCCCACGUCGAAGUACCGUGCUUGAUGGAGUGAUGUUCGAUCAGAGGAGAAGGCGCGGUGUUGU [Same State FMN B GF23]

>  <apparent KD of K4 kissing-loop reporter>
656 nM

$$$$
>  <sequenceInput>
ACCCGGGCCCGAAAGGGCCCGGGAAGAGAUACCAGCAGCGAAAGCUGCCCUUGGCAGCUCACUUAGUGAUGUUGAGUAUAGGGUA [#22 K4 Theophylline A Same State]

>  <apparent KD of K4 kissing-loop reporter>
279 nM

$$$$
>  <sequenceInput>
ACGUGCACCAGUGAUGUUGGAAAAUAUGAAGGAGCGGGAGAAAACCCAGGUAGGUCGCAUAAUAGCACGAGCCACGAAAGUGGCA

>  <apparent KD of K4 kissing-loop reporter>
122 nM

$$$$
>  <sequenceInput>
AAGGUCACUGCUACAGUGAUGUUGUGGGAGCAGGAUAUGCUGAAAAGCAGAAGGGCUCGCUCCAGGUGACCGAAUGAAACAUUCA [whbob_SS_FMNA__2th176]

>  <apparent KD of K4 kissing-loop reporter>
1290 nM

$$$$
>  <sequenceInput>
GUGCAGUGAUGUUGCACGAGGAAAGACGAUACCAGCCGUAAAUAAGGCCCUUGGCAGCGUGGGCUAGCAUAAAGUACGCUAGUCU [Mara]

>  <apparent KD of K4 kissing-loop reporter>
109 nM

$$$$

Incoming: Lab request: please report apparent KD of K4 kissing-loop reporter under test system K4 kissing-loop RNA reporter for GACUCAUGUAGAAGGAGCGUCAGAAGUUAUAGACAUGAGUGAUGUUCAUGUUAGCUGAUUUGACAGGUAGGUCGCUACAGCAGGA [KL-SSArg B16 #analogue]
Outgoing: 126 nM

Incoming: # query: apparent KD of K4 kissing-loop reporter | item AAAAUAAACCAGUGAUGUUGGUGUCUAGAUACCAGCGAUAAUAAUCGCCCUUGGCAGCUACGGACGUACAAAAUAAGUACGUCCU [MatMod 10 - Jieux - Same State - Theophylline A] | system: K4 kissing-loop RNA reporter
Outgoing: 454 nM

Incoming: # get_value(readout= apparent KD of K4 kissing-loop reporter, system= K4 kissing-loop RNA reporter) for GUAGAUAGGCAACAUCCCUAGUCUACAGACUAGGAUAUCAGGAAACUGAGAAGGAGUCUCCUUGCAGUGAUGUUGCAAGAAUAAU [[F]''-[K]'-[F]'-[F1]-[F2]-[K1]-[K2]_Design5]
Outgoing: 200 nM

Incoming: Fill in the recorded apparent KD of K4 kissing-loop reporter for this sequence, with K4 kissing-loop RNA reporter as test system: ACCUAGUAGACAGGAUAUCACCAUGACAGUGAUGUUGUCAUGCUCGAUUUGAGGAAACUCAGAUCGUGAGAAGGGUCUAACGACU [FMN B SS t7]
Outgoing: 170 nM

Incoming: // map GCAUGUAUGCGAGAGUGAUGUUCAUGGUUUCGAGGACCGGUACGGCCGCCACUCGCGAUCCGGCGUACAAUCGUGAAGUUAUCAU [theeternabot_sameState_KL_Trp_A_42] to recorded apparent KD of K4 kissing-loop reporter (system: K4 kissing-loop RNA reporter);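 further: bound reporter read as fluorescence of individual clusters on recovered sequencing chips by microscopy, with normalized cluster intensities fitted with a binding model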
Outgoing: 655 nM

Incoming: What measured apparent KD of K4 kissing-loop reporter is associated with CGUUUAUUGCAGGAUACCAGUACCCAUUAUGUACGUUUAUAGUAGAGUGAUGUUCUAAAGUACCCUUGGCAGCUUCCCGUGACCC [#22 K4 Theophylline B Exclusion] on K4 kissing-loop RNA reporter?
Outgoing: 142 nM
